- assay-system: UniProt:P10980
- Sequence (P10980 whole entry): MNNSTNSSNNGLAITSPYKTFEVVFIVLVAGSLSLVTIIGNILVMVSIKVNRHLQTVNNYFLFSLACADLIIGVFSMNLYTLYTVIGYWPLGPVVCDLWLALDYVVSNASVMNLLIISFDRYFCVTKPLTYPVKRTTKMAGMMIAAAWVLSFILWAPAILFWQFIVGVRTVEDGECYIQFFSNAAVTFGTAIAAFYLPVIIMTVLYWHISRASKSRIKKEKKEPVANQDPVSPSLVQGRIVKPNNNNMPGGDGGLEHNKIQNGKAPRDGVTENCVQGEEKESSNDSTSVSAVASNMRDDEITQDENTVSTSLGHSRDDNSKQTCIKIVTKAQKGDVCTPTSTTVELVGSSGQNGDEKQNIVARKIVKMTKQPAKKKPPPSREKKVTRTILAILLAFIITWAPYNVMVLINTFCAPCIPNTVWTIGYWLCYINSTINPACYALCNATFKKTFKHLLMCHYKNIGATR
property: pKi
Numbers only, as −log10 of the molar value.

// returns reported pKi for input C[C@H]1OC(=O)C2C[C@H]3CCCC[C@@H]3[C@@H](/C=C/[C@@H]3CCC[C@H](C)N3C)C21 (stereo partly specified) [HIMBACINE]
7.99

The reported measurements were obtained from BindingDB's records for doi:10.1016/0024-3205(90)90472-4.
